Documented Hepatic concentration across a set of compounds
- Format: in vivo, Sprague-Dawley rats
- test settings: male rats, D+3 after oral tube-feeding of flocoumafen about 2.3 mg/kg (mixture of 4 stereoisomers), mean of three rats, liver
Write the quantity with the unit trailing the number.

O=c1oc2ccccc2c(O)c1C1CC(c2ccc(OCc3ccc(C(F)(F)F)cc3)cc2)Cc2ccccc21 (single isomer, unassigned) [Enantiomer E4, flocoumafen]: 9906 ng/g
O=c1oc2ccccc2c(O)c1C1CC(c2ccc(OCc3ccc(C(F)(F)F)cc3)cc2)Cc2ccccc21 (single isomer, unassigned) [Enantiomer E3, flocoumafen]: 1862 ng/g
O=c1oc2ccccc2c(O)c1C1CC(c2ccc(OCc3ccc(C(F)(F)F)cc3)cc2)Cc2ccccc21 (single isomer, unassigned) [Enantiomer E2, flocoumafen]: 1962 ng/g

Continue with the compound presented below.
Entry O=c1oc2ccccc2c(O)c1C1CC(c2ccc(OCc3ccc(C(F)(F)F)cc3)cc2)Cc2ccccc21 (single isomer, unassigned) [Enantiomer E1, flocoumafen] ; Hepatic concentration = 47 ng/g

----------
- Type: in vivo, Sprague-Dawley rats
- test settings: female rats, D+1 after oral tube-feeding of flocoumafen about 2.3 mg/kg (mixture of 4 stereoisomers), mean of three rats, liver
- Method: The configurational stereoisomers of flocoumafen are separated by high-pressure liquid chromatography using a LUX® Cellulose-4 chiral column (00F-4490-B0, Phenomenex, Le Pecq, France) as stationary phase and a mixture formed from acetonitrile (A) and water comprising 0.1% by volume of formic acid (B), with an A/B volume ratio of 92/8, as mobile phase with a flow rate of the liquid mobile phase in the chromatography column of 0.25 mL/minute. […]
measured parameter: Hepatic concentration (ng/g)
Give the number; ng/g is assumed, so skip it.

Look over these answered cases.
O=c1oc2ccccc2c(O)c1C1CC(c2ccc(OCc3ccc(C(F)(F)F)cc3)cc2)Cc2ccccc21 (single isomer, unassigned) [Enantiomer E2, flocoumafen]: 5396
O=c1oc2ccccc2c(O)c1C1CC(c2ccc(OCc3ccc(C(F)(F)F)cc3)cc2)Cc2ccccc21 (single isomer, unassigned) [Enantiomer E4, flocoumafen]: 10342
O=c1oc2ccccc2c(O)c1C1CC(c2ccc(OCc3ccc(C(F)(F)F)cc3)cc2)Cc2ccccc21 (single isomer, unassigned) [Enantiomer E3, flocoumafen]: 5478

Continue with the compound presented below.
Entry O=c1oc2ccccc2c(O)c1C1CC(c2ccc(OCc3ccc(C(F)(F)F)cc3)cc2)Cc2ccccc21 (single isomer, unassigned) [Enantiomer E1, flocoumafen] ; Hepatic concentration = 4585

----------
- Type: in vivo, Sprague-Dawley rats
- test settings: female rats, D+7 after oral tube-feeding of flocoumafen about 2.3 mg/kg (mixture of 4 stereoisomers), mean of three rats, liver
measured parameter: Hepatic concentration (ng/g)
Give the number; ng/g is assumed, so skip it.

O=c1oc2ccccc2c(O)c1C1CC(c2ccc(OCc3ccc(C(F)(F)F)cc3)cc2)Cc2ccccc21 (single isomer, unassigned) [Enantiomer E4, flocoumafen]: 5054
O=c1oc2ccccc2c(O)c1C1CC(c2ccc(OCc3ccc(C(F)(F)F)cc3)cc2)Cc2ccccc21 (single isomer, unassigned) [Enantiomer E3, flocoumafen]: 1228
O=c1oc2ccccc2c(O)c1C1CC(c2ccc(OCc3ccc(C(F)(F)F)cc3)cc2)Cc2ccccc21 (single isomer, unassigned) [Enantiomer E2, flocoumafen]: 469

Continue with the compound presented below.
Entry O=c1oc2ccccc2c(O)c1C1CC(c2ccc(OCc3ccc(C(F)(F)F)cc3)cc2)Cc2ccccc21 (single isomer, unassigned) [Enantiomer E1, flocoumafen] ; Hepatic concentration = 1196
